# collection of IC50 values tested on ULK1 (Homo sapiens (Human))

compound | tgt | IC50
CNC(=O)c1ccccc1Nc1nc(Nc2ccc3c(c2)OCCO3)ncc1Cl | ULK1 (Homo sapiens (Human)) | < 0.2 µM
O=C1CCc2cc(Nc3ncc(C(F)(F)F)c(C#Cc4ccccc4)n3)ccc2N1 | ULK1 (Homo sapiens (Human)) | > 2 µM
CNC(=O)c1ccccc1Oc1nc(Nc2cc(OC)ccc2C)ncc1Br | ULK1 (Homo sapiens (Human)) | > 2 µM
Nc1nc(Nc2ccc3c(c2)OCO3)ncc1C(F)(F)F [165b] | ULK1 (Homo sapiens (Human)) | 0.2 to 2 µM
O=C1CCc2cc(Nc3ncc(C(F)(F)F)c(Nc4ccccc4N4CCOCC4)n3)ccc2N1 [118a] | ULK1 (Homo sapiens (Human)) | < 0.2 µM
CNC(=O)c1ccccc1Nc1nc(Nc2cc3c(cc2C)OCO3)ncc1Cl | ULK1 (Homo sapiens (Human)) | < 0.2 µM
FC(F)(F)c1cnc(Nc2ccc3c(c2)OCO3)nc1N1CCC1 [166b] | ULK1 (Homo sapiens (Human)) | < 0.2 µM
Cc1cnc(Nc2ccc3c(c2)CCC(=O)N3)nc1NCc1cccc(S(C)(=O)=O)c1 | ULK1 (Homo sapiens (Human)) | > 2 µM

###

Let's look at some compounds and their measured pIC50.
# tgt: ULK1 (Homo sapiens (Human))
pIC50: −log10 of the molar value.

compound | tgt | pIC50
CNC(=O)c1ccccc1Oc1nc(Nc2cccc(OC)c2OC)ncc1C(F)(F)F [115a] | ULK1 (Homo sapiens (Human)) | < 5.70
O=C1CCc2cc(Nc3ncc(C(F)(F)F)c(SCc4ccccc4)n3)ccc2N1 [compound 62] | ULK1 (Homo sapiens (Human)) | > 6.70
Nc1ncc(C(F)(F)F)c(Nc2cnc3[nH]ccc3c2)n1 [181b] | ULK1 (Homo sapiens (Human)) | 5.70 to 6.70
COc1ccc(Nc2nc(Nc3ccc(N4CCOCC4)cc3OC)ncc2Br)cn1 [compound 28] | ULK1 (Homo sapiens (Human)) | 5.70 to 6.70
CS(=O)(=O)c1cccc(CNc2nc(Nc3ccc4c(c3)CCC(=O)N4)ncc2F)c1 [compound 56] | ULK1 (Homo sapiens (Human)) | < 5.70
O=C1CCc2cc(Nc3ncc(C(F)(F)F)c(-c4ccccc4)n3)ccc2N1 [compound 72] | ULK1 (Homo sapiens (Human)) | < 5.70
COc1cnc(Nc2ccc3c(c2)CCC(=O)N3)nc1Nc1ccc2c(c1)CCC(=O)N2 [compound 135] | ULK1 (Homo sapiens (Human)) | < 5.70
CCCCOc1nc(Nc2cc(OC)c(OC)c(OC)c2)ncc1Br [compound 173] | ULK1 (Homo sapiens (Human)) | > 6.70
CNC(=O)c1ccccc1Oc1nc(Nc2cc(C)ccc2C)ncc1C(F)(F)F [compound 104] | ULK1 (Homo sapiens (Human)) | < 5.70

###

# collection of IC50 values tested on ULK1 (Homo sapiens (Human), UniProt O75385)
# Sequence (O75385 whole entry, species assumed): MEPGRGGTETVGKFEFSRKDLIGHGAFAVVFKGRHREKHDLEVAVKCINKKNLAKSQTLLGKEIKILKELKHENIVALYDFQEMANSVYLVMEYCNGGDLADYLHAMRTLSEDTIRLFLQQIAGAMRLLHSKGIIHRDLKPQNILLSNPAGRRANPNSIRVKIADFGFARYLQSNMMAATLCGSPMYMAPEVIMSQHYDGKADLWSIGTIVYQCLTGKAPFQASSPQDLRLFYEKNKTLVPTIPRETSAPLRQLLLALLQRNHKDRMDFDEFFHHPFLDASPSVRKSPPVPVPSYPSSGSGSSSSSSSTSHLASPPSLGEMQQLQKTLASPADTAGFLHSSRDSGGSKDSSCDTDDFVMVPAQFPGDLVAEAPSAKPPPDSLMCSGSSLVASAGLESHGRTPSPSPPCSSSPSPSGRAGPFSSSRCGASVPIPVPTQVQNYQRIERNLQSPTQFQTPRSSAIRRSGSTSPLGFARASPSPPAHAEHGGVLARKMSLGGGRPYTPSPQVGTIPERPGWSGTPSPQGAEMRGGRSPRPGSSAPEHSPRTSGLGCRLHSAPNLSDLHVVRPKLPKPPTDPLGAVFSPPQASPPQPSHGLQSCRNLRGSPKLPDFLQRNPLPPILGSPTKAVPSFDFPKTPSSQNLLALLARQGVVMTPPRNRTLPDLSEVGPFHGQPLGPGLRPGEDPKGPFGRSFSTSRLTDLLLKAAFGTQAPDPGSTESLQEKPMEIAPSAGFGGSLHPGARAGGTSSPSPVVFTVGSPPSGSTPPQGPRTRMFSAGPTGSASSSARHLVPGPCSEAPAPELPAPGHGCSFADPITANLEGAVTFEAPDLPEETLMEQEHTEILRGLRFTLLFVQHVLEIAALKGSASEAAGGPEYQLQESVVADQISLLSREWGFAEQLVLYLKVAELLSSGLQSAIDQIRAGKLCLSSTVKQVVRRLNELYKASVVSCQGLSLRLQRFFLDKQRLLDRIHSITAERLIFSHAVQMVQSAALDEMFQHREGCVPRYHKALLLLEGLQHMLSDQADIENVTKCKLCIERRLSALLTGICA

molecule | IC50
CS(=O)(=O)c1cccc(CNc2nc(Nc3ccc4[nH]ccc4c3)ncc2Br)c1 [compound 153] | > 2000 nM
O=C1CCc2cc(Nc3ncc(Cl)c(Nc4ccc5c(c4)CCC(=O)N5)n3)ccc2N1 [compound 134] | < 200 nM
FC(F)(F)c1cnc(Nc2cccc3ccccc23)nc1Nc1cccc2ccccc12 [126b] | 200 to 2000 nM
CNC(=O)c1ccccc1Sc1nc(Nc2cc(OC)ccc2C)ncc1C(F)(F)F [compound 117] | > 2000 nM
FC(F)(F)c1cnc(N2CCC2)nc1Nc1ccc2c(c1)OCO2 [166a] | > 2000 nM
COc1cccc(Nc2ncc(Cl)c(Nc3cccc(OC)c3)n2)c1 [143b] | < 200 nM
CNC(=O)c1ccccc1Oc1nc(Nc2ccc(C)c(C)c2)ncc1C(F)(F)F [compound 106] | 200 to 2000 nM
CNC(=O)c1ccccc1Nc1ccnc(Nc2cc(OC)c(OC)c(OC)c2)n1 [compound 60] | < 200 nM
CC(=O)Nc1ccc(Nc2nc(Nc3ccc4c(c3)CCC(=O)N4)ncc2C(F)(F)F)cc1 [compound 132] | < 200 nM
